ASSAY COMMENT: Stability and release kinetics of maytansinoid-HSA conjugates in buffer solution at pH 4.0 and pH 7.4
Assay type: physicochemical
TEST CONDITIONS: maytansinoid-HSA conjugate, PBS pH 7.4, 37° C., measured at 200 μM
Marks after values point to notes of the source that are not given here.

COMPOUND: COc1cc2cc(c1Cl)N(C)C(=O)C[C@H](OC(=O)COc1ccc(/C(C)=N/NC(=O)c3ccc(NC(=O)CCCCCN4C(=O)C=CC4=O)cc3S(=O)(=O)O)cc1)[C@]1(C)O[C@H]1[C@H](C)[C@@H]1C[C@@](O)(NC(=O)O1)[C@H](OC)/C=C/C=C(\C)C2 [Compound 36]
free maytansinoid after 24 h at pH 7.4: 4.7%*
--
COMPOUND: COc1cc2cc(c1Cl)N(C)C(=O)C[C@H](OC(=O)CCc1ccc(/C(C)=N/NC(=O)c3ccc(NC(=O)CCCCCN4C(=O)C=CC4=O)cc3S(=O)(=O)O)cc1)[C@]1(C)O[C@H]1[C@H](C)[C@@H]1C[C@@](O)(NC(=O)O1)[C@H](OC)/C=C/C=C(\C)C2 [Compound 41]
free maytansinoid after 24 h at pH 7.4: 4.6%*
--
COMPOUND: COc1cc2cc(c1Cl)N(C)C(=O)C[C@H](OC(=O)CN(C)c1ccc(/C(C)=N/NC(=O)c3ccc(NC(=O)CCCCCN4C(=O)C=CC4=O)cc3S(=O)(=O)O)cc1)[C@]1(C)O[C@H]1[C@H](C)[C@@H]1C[C@@](O)(NC(=O)O1)[C@H](OC)/C=C/C=C(\C)C2 [Compound 40]
free maytansinoid after 24 h at pH 7.4: 8.9%*
--
COMPOUND: COc1cc2cc(c1Cl)N(C)C(=O)C[C@H](OC(=O)CSc1ccc(/C(C)=N/NC(=O)c3ccc(NC(=O)CCCCCN4C(=O)C=CC4=O)cc3S(=O)(=O)O)cc1C(F)(F)F)[C@]1(C)O[C@H]1[C@H](C)[C@@H]1C[C@@](O)(NC(=O)O1)[C@H](OC)/C=C/C=C(\C)C2 [Compound 38]
free maytansinoid after 24 h at pH 7.4: 4.9%*
--
COMPOUND: COc1cc2cc(c1Cl)N(C)C(=O)C[C@H](OC(=O)CSc1ccc(/C(C)=N/NC(=O)c3ccc(NC(=O)CCCCCN4C(=O)C=CC4=O)cc3S(=O)(=O)O)cc1C)[C@]1(C)O[C@H]1[C@H](C)[C@@H]1C[C@@](O)(NC(=O)O1)[C@H](OC)/C=C/C=C(\C)C2 [Compound 39]
free maytansinoid after 24 h at pH 7.4: 9.6%*
--
COMPOUND: COc1cc2cc(c1Cl)N(C)C(=O)C[C@H](OC(=O)Cc1ccc(/C(C)=N/NC(=O)c3ccc(NC(=O)CCCCCN4C(=O)C=CC4=O)cc3S(=O)(=O)O)cc1)[C@]1(C)O[C@H]1[C@H](C)[C@@H]1C[C@@](O)(NC(=O)O1)[C@H](OC)/C=C/C=C(\C)C2 [Compound 32]
free maytansinoid after 24 h at pH 7.4: 9.5%*
